We begin with a simple list: items and their reported TGI.
Test system: SF-539 CNS
Experiment: NCI tumour cell line growth inhibition, 48 h
Where a SMILES comes first, the peptide text is derived from it.

Before answering, review these 6 worked examples.
- COMPOUND: "NC1=C(Cl)C(=O)c2ccc(S(N)(=O)=O)cc2C1=O"
  EXPERIMENTAL TARGET: "SF-539 CNS"
  TGI: "0.379 µM"
- COMPOUND: "O=C(O)c1ccc(O)c(N=Nc2cc(S(=O)(=O)O)c3ccccc3c2O)c1"
  EXPERIMENTAL TARGET: "SF-539 CNS"
  TGI: "> 10 µM"
- COMPOUND: "CC(=O)OCc1cc(OC(C)=O)cnc1COC(C)=O"
  EXPERIMENTAL TARGET: "SF-539 CNS"
  TGI: "> 100 µM"
- COMPOUND: "COC1C=CC(C(=O)[N+]2=Cc3[nH]c4ccccc4c3CC2)O1 (stereo not given)"
  EXPERIMENTAL TARGET: "SF-539 CNS"
  TGI: "> 100 µM"
- COMPOUND: "COC(=O)C(C(=O)C(=O)Nc1ccccc1C(C)=O)c1nc2ccc(Cl)cc2[nH]c1=O (stereo not given)"
  EXPERIMENTAL TARGET: "SF-539 CNS"
  TGI: "> 100 µM"
- COMPOUND: "CC(=O)OCCCCn1cnc2nc(Nc3ccccc3)nc(Cl)c21"
  EXPERIMENTAL TARGET: "SF-539 CNS"
  TGI: "> 100 µM"

Q: Which value of TGI has been reported for N#CC1=C(S)N(C2OC(CO)C(O)C(O)C2O)C(c2ccccc2)=CC1c1ccccc1 (stereo not given) in the records?
Ans: > 100 µM

Q: Endpoint output: TGI of `O=C(C#CP(=O)(O)c1ccccc1)c1ccccc1` . Value?
Ans: > 100 µM

Q: Would you kindly share the measured TGI for CC(=O)OCC1OC(n2c(C)c(N=Nc3ccccc3)c(C)c(C#N)c2=S)C(OC(C)=O)C(OC(C)=O)C1OC(C)=O (stereo not given) ?
Ans: > 100 µM

Q: What value of TGI has been reported for the following compound? COC(=O)C(=O)C(C(=O)C(=O)Nc1ccc(Cl)cc1C)c1nc2ccc(C(=O)c3ccccc3)cc2[nH]c1=O (stereo not given)
Ans: > 100 µM

Q: If you can, please state the reported TGI value of `Cc1n[nH]c(=S)n1/N=C/c1ccc(F)c(Oc2ccccc2)c1` .
Ans: 65.1 µM

Q: Suppose we examine the compound `CCOc1ccccc1N=Nc1c(-c2ccccc2)nn(C(=O)CC(=O)Nc2cccc(Cl)c2)c1-c1ccccc1` ; what TGI value has been reported?
Ans: > 100 µM

Q: Quick one: TGI of `Cc1cccc2c(N=Nc3ccc(S(N)(=O)=O)cc3)c(O)[nH]c12` ?
Ans: > 25 µM

Q: Report TGI for `COC(=O)c1ccc(N=NN(C)COc2ccc(C#N)cc2)cc1` please.
Ans: > 100 µM

Q: Bench note: what TGI did CC(C)CC(NC(=O)C(CC(C)C)NC(=O)C(Cc1cnc[nH]1)NC(=O)C(C)NC(=O)C(NC(=O)C(C)NC(=O)C(Cc1c[nH]c2ccccc12)NC(=O)C(CCC(=O)O)NC(=O)C(N)Cc1ccccc1)C(C)C)C(N)=O (stereo not given) (H-FEWAVAHLL-NH2; configuration not given here) show?
Ans: > 100 µM

Q: Which TGI value is on record for `O=C(NCc1ccccc1)c1cc2cc(O)c(O)cc2cn1` ?
Ans: > 100 µM

Q: # TGI lookup, item `CNNCc1ccc(C(=O)NC(C)C)cc1`
Ans: > 500 µM

Q: So what's the measured TGI for this one? COc1ccc(NC(=O)C(=O)C2CNC(=O)NC2=O)c(OC)c1 (stereo not given)
Ans: > 100 µM
